target: Syk (356-635 amino acids) catalytic domain (Homo sapiens (Human), UniProt P43405); assay: Inhibition of enzymatic Syk kinase activity (radiometric); format: biochemical; details: read-out: IC50 Syk
Counter-ions that a name gives are not always drawn.
measured_attribute: IC50

Examples from the recorded data:
compound	meas_value
O=c1[nH]ncc2nc(-c3ccc(CN4CCOCC4)cc3)nc(Nc3ccc(CN4CCNCC4)cc3)c12 [Example 55, hydrochloride]	> 100 nM
O=c1[nH]ncc2nc(N3CCCCCC3)nc(Nc3ccc(OC4CCNCC4)cc3)c12 [Example 292, hydrochloride]	< 10 nM
O=C(c1ccc(Nc2nc(-c3ccccc3)nc3cn[nH]c(=O)c23)cc1)N1CCOCC1	> 100 nM

Below: the item to evaluate.
Briefly, IC50 measured for CC(C)(C#N)C1CCN(c2nc(Nc3ccc(N4CCC(CC(=O)O)CC4)cc3)c3c(=O)[nH]ncc3n2)CC1 : < 50 nM

====

biological target: UniProt:O60674; assay: Inhibition of enzymatic JAK2 kinase activity (TR-FRET); type: biochemical; settings: read-out: IC50 JAK
pIC50: −log10 of the molar value.
Property: pIC50; scope: individual compounds

compound	pIC50
N#CCC1CCN(c2nc(Nc3ccc(N4CCC(CC(=O)O)CC4)nc3)c3c(=O)[nH]ncc3n2)CC1 [Example 116]	> 7.30
CC1(O)CCN(CCOc2ccc(Nc3nc(N4CCC(CC#N)CC4)nc4cn[nH]c(=O)c34)cc2)CC1 [Example 185]	> 7.30
O=c1[nH]ncc2nc(N3CCCCCC3)nc(Nc3ccc(N4CCC(CCO)CC4)cc3)c12 [Example 195]	> 8.00

Below: the item to evaluate.
Briefly, pIC50 measured for O=C(O)C1CC12CCN(CCOc1ccc(Nc3nc(N4CCCCCC4)nc4cn[nH]c(=O)c34)cc1)CC2 (stereo not shown) [Example 158] : > 8.00

====

target: JAK2 (Homo sapiens (Human)); test: Inhibition of enzymatic JAK2 kinase activity (TR-FRET); assay type: biochemical; settings: read-out: IC50 JAK
Sequence (O60674 808-1132): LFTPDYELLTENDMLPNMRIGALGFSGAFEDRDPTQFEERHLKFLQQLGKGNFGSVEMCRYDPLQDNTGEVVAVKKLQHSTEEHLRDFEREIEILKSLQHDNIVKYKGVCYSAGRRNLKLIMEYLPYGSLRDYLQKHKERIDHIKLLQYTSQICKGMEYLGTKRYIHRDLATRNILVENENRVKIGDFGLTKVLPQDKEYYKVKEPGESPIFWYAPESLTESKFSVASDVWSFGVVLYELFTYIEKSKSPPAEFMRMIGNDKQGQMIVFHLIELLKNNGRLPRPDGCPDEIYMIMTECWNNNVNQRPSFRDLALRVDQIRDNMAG
pIC50: −log10 of the molar value. Structures can show the parent of a compound that is named as a salt.
Property: pIC50; scope: individual compounds

compound	pIC50
O=c1[nH]ncc2nc(N3CCCCCC3)nc(Nc3ccc(OC4CCNCC4)cc3)c12 [Example 292, hydrochloride]	> 8.00
O=C(O)CN1CCC(Oc2ccc(Nc3nc(N4CCCCCC4)nc4cn[nH]c(=O)c34)cc2)CC1	> 7.30
N#CCC1CCN(c2nc(Nc3ccc(N4CCC(CCC(=O)O)CC4)cc3)c3c(=O)[nH]ncc3n2)CC1	> 7.30

Below: the item to evaluate.
Briefly, pIC50 measured for CC(C)(C#N)C1CCN(c2nc(Nc3ccc(N4CCC(CC(=O)O)CC4)cc3)c3c(=O)[nH]ncc3n2)CC1 : > 7.30

====

target: Syk (356-635 amino acids) catalytic domain (Homo sapiens (Human), UniProt P43405); test: Inhibition of enzymatic Syk kinase activity (radiometric); assay type: biochemical; conditions: read-out: IC50 Syk
pIC50: −log10 of the molar value.
Property: pIC50; scope: individual compounds

compound	pIC50
CC(C)(C(=O)O)N1CCN(c2ccc(Nc3nc(N4CCCCCC4)nc4cn[nH]c(=O)c34)cc2)CC1	> 8.00
N#CCC1CCN(c2nc(Nc3ccc(N4CCC5(CC4)CC5C(=O)O)cc3)c3c(=O)[nH]ncc3n2)CC1 (centres unmarked)	> 7.30
N#CCC1CCN(c2nc(Nc3ccc(N(CCO)CCO)cc3)c3c(=O)[nH]ncc3n2)CC1	> 8.00

Briefly, pIC50 measured for O=c1[nH]ncc2nc(N3CCCCCC3)nc(Nc3ccc(OCCN4CCC(CO)CC4)cc3)c12 : > 7.30

Briefly, pIC50 measured for O=c1[nH]ncc2nc(N3CCCCCC3)nc(Nc3ccc(N4CCCN(CCO)CC4)cc3)c12 : > 8.00

Briefly, pIC50 measured for O=c1[nH]ncc2nc(N3CCCCC3)nc(Nc3ccc(OCCN4CCNCC4)nc3)c12 : < 7.00

Briefly, pIC50 measured for CN1CCN(Cc2ccc(Nc3nc(N4CCCCCC4)nc4cn[nH]c(=O)c34)cc2)CC1 : > 7.30

Briefly, pIC50 measured for CS(=O)(=O)c1ccc(Nc2nc(N3CCCCCC3)nc3cn[nH]c(=O)c23)cc1 : > 7.30
